Condition info: siRNA; note: test system not given here
HELM strings list units from the 5' end as sugar, base in round brackets, then linkage (d deoxyribose, r ribose, m 2'-O-methyl, p phosphodiester). Strings are as the collection lists them, not checked against the first reports. ss, as = sense and antisense strand
Reported target mRNA knockdown values are given for each entry in this list.
Write the number in % without appending the unit.

Some substances with known target mRNA knockdown results, for comparison:
INSERT INTO assay_data (substance, measured_parameter, value_observed) VALUES
  ('RNA1{r(A)p.r(U)p.r(C)p.m(G)p.r(A)p.r(C)p.r(C)p.m(U)p.r(G)p.r(A)p.r(A)p.r(G)p.r(G)p.r(A)p.r(G)p.m(U)p.r(A)p.r(C)p.r(G)p.r(T)p.r(T)}|RNA2{r(C)p.r(G)p.m(U)p.r(A)p.r(C)p.r(U)p.r(C)p.r(C)p.r(U)p.r(U)p.m(C)p.r(A)p.r(G)p.r(G)p.r(U)p.r(C)p.r(G)p.r(A)p.r(U)p.r(T)p.r(T)}$$$RNA1{StrandType:ss}|RNA2{StrandType:as}$', 'target mRNA knockdown', 29),
  ('RNA1{r(A)p.r(C)p.r(C)p.r(G)p.r(A)p.r(C)p.r(G)p.r(A)p.r(U)p.r(U)p.r(C)p.r(U)p.r(U)p.r(C)p.m(U)p.r(A)p.r(C)p.r(U)p.r(C)p.r(T)p.r(T)}|RNA2{r(G)p.r(A)p.r(G)p.m(U)p.r(A)p.r(G)p.r(A)p.r(A)p.r(G)p.m(A)p.m(A)p.r(U)p.r(C)p.r(G)p.r(U)p.r(C)p.r(G)p.r(G)p.r(U)p.r(T)p.r(T)}$$$RNA1{StrandType:ss}|RNA2{StrandType:as}$', 'target mRNA knockdown', 67),
  ('RNA1{r(A)p.r(G)p.r(A)p.r(A)p.r(A)p.r(A)p.r(G)p.r(C)p.r(A)p.r(G)p.r(C)p.r(G)p.r(A)p.m(U)p.r(A)p.r(C)p.r(G)p.r(C)p.r(U)p.r(T)p.r(T)}|RNA2{r(A)p.r(G)p.r(C)p.r(G)p.r(U)p.r(A)p.r(U)p.r(C)p.r(G)p.r(C)p.r(U)p.r(G)p.r(C)p.r(U)p.r(U)p.r(U)p.r(U)p.r(C)p.r(U)p.r(T)p.r(T)}$$$RNA1{StrandType:ss}|RNA2{StrandType:as}$', 'target mRNA knockdown', 69),
  ('RNA1{r(G)p.r(U)p.r(C)p.m(U)p.r(A)p.r(U)p.r(G)p.r(C)p.r(C)p.r(A)p.r(A)p.r(G)p.r(A)p.r(A)p.r(G)p.r(G)p.r(G)p.r(A)p.r(G)p.r(T)p.r(T)}|RNA2{r(C)p.r(U)p.r(C)p.r(C)p.r(C)p.r(U)p.r(U)p.r(C)p.r(U)p.r(U)p.r(G)p.r(G)p.r(C)p.r(A)p.m(U)p.r(A)p.r(G)p.r(A)p.r(C)p.r(T)p.r(T)}$$$RNA1{StrandType:ss}|RNA2{StrandType:as}$', 'target mRNA knockdown', 76);

# target mRNA knockdown (substance: `RNA1{r(G)p.r(C)p.r(A)p.r(G)p.r(C)p.r(A)p.r(C)p.r(G)p.r(A)p.r(C)p.r(U)p.r(U)p.r(C)p.r(U)p.r(U)p.r(C)p.r(A)p.r(A)p.r(G)p.r(T)p.r(T)}|RNA2{d(C)p.d(U)p.d(U)p.d(G)p.d(A)p.d(A)p.d(G)p.d(A)p.d(A)p.d(G)p.d(U)p.d(C)p.d(G)p.d(U)p.d(G)p.d(C)p.d(U)p.d(G)p.d(C)p.r(T)p.r(T)}$$$RNA1{StrandType:ss}|RNA2{StrandType:as}$` ) is 0

----------
Condition info: siRNA
HELM strings list units from the 5' end as sugar, base in round brackets, then linkage (d deoxyribose, r ribose, m 2'-O-methyl, p phosphodiester). Strings are as the collection lists them, not checked against the first reports. ss, as = sense and antisense strand; [lna] = locked nucleic acid (LNA); [fl2r] = 2'-fluoro
Measured parameter: target mRNA knockdown (%)
Write the number in % without appending the unit.

Some substances with known target mRNA knockdown results, for comparison:
INSERT INTO results (substance, measured_parameter, value_observed) VALUES
  ('RNA1{r(A)p.r(G)p.[fl2r](U)p.r(A)p.r(A)p.r(U)p.r(C)p.r(C)p.r(G)p.r(G)p.r(A)p.r(C)p.r(U)p.[fl2r](C)p.r(A)p.r(A)p.r(C)p.r(U)p.r(C)p.r(T)p.r(T)}|RNA2{r(G)p.r(A)p.r(G)p.r(U)p.[fl2r](U)p.r(G)p.r(A)p.r(G)p.r(U)p.r(C)p.r(C)p.r(G)p.r(G)p.r(A)p.r(U)p.[fl2r](U)p.r(A)p.r(C)p.r(U)p.r(T)p.r(T)}$$$RNA1{StrandType:ss}|RNA2{StrandType:as}$', 'target mRNA knockdown', 68),
  ('RNA1{r(G)p.r(C)p.r(A)p.r(A)p.r(G)p.r(U)p.r(G)p.r(G)p.r(C)p.r(A)p.r(A)p.r(G)p.r(A)p.r(G)p.r(G)p.r(A)p.r(U)p.m(U)p.r(A)p.r(T)p.r(T)}|RNA2{m(U)p.r(A)p.r(A)p.r(U)p.r(C)p.r(C)p.r(U)p.r(C)p.r(U)p.r(U)p.r(G)p.r(C)p.r(C)p.r(A)p.r(C)p.r(U)p.r(U)p.r(G)p.r(C)p.r(T)p.r(T)}$$$RNA1{StrandType:ss}|RNA2{StrandType:as}$', 'target mRNA knockdown', 69);

Turning to the following substance.
# target mRNA knockdown (substance: `RNA1{r(A)p.r(U)p.r(C)p.r(U)p.r(G)p.r(A)p.r(A)p.r(G)p.r(A)p.r(A)p.r(G)p.r(G)p.r(A)p.r(G)p.r(A)p.r(A)p.r(A)p.r(A)p.r(A)p.d(T)p.d(T)}|RNA2{r(U)p.r(U)p.r(U)p.r(U)p.r(U)p.r(C)p.r(U)p.r(C)p.r(C)p.r(U)p.r(U)p.r(C)p.r(U)p.r(U)p.r(C)p.r(A)p.r(G)p.r(A)p.r(U)p.[lna](T)p.[lna](T)}$$$RNA1{StrandType:ss}|RNA2{StrandType:as}$` ) is 93

----------
Condition info: siRNA
HELM strings list units from the 5' end as sugar, base in round brackets, then linkage (d deoxyribose, r ribose, m 2'-O-methyl, p phosphodiester). Strings are as the collection lists them, not checked against the first reports. ss, as = sense and antisense strand; [lna] = locked nucleic acid (LNA); [hna] = hexitol nucleic acid; [s4r] = 4'-thioribose; [fl2r] = 2'-fluoro
Measured parameter: target mRNA knockdown (%)
Write the number in % without appending the unit.

INSERT INTO measurements (substance, measured_parameter, value_observed) VALUES
  ('RNA1{r(A)p.r(C)p.r(A)p.r(U)p.r(A)p.r(G)p.r(A)p.r(G)p.r(G)p.r(A)p.r(A)p.r(G)p.r(A)p.r(C)p.r(G)p.r(C)p.r(G)p.r(G)p.r(A)p.r(T)p.r(T)}|RNA2{r(U)p.r(C)p.r(C)p.r(G)p.r(C)p.r(G)p.r(U)p.r(C)p.r(U)p.r(U)p.r(C)p.r(C)p.r(U)p.r(C)p.[fl2r](U)p.r(A)p.r(U)p.r(G)p.r(U)p.r(T)p.r(T)}$$$RNA1{StrandType:ss}|RNA2{StrandType:as}$', 'target mRNA knockdown', 89),
  ('RNA1{m(U)p.r(C)p.m(C)p.r(C)p.m(U)p.r(U)p.m(C)p.r(C)p.m(A)p.r(C)p.m(C)p.r(G)p.m(C)p.r(C)p.m(A)p.r(U)p.m(A)p.r(U)p.m(U)p.r(T)p.r(T)}|RNA2{r(A)p.r(A)p.r(U)p.r(A)p.r(U)p.r(G)p.r(G)p.r(C)p.r(G)p.r(G)p.r(U)p.r(G)p.r(G)p.r(A)p.r(A)p.r(G)p.r(G)p.r(G)p.r(A)p.r(T)p.r(T)}$$$RNA1{StrandType:ss}|RNA2{StrandType:as}$', 'target mRNA knockdown', 11),
  ('RNA1{r(G)p.r(A)p.r(C)p.r(G)p.r(U)p.r(A)p.r(A)p.r(A)p.r(C)p.r(G)p.r(G)p.r(C)p.r(C)p.r(A)p.r(C)p.r(A)p.r(A)p.r(G)p.r(U)p.r(U)p.r(C)}|RNA2{r(A)p.r(C)p.r(U)p.r(U)p.r(G)p.r(U)p.r(G)p.r(G)p.r(C)p.r(C)p.r(G)p.r(U)p.r(U)p.r(U)p.r(A)p.r(C)p.r(G)p.r(U)p.[lna](C)p.[lna](G)p.r(C)}$$$RNA1{StrandType:ss}|RNA2{StrandType:as}$', 'target mRNA knockdown', 86.3),
  ('RNA1{r(C)p.r(U)p.r(U)p.r(A)p.r(C)p.r(G)p.r(C)p.r(U)p.r(G)p.r(A)p.r(G)p.r(U)p.r(A)p.r(C)p.r(U)p.r(U)p.r(C)p.r(G)p.r(A)p.[lna](T)p.[lna](T)}|RNA2{r(U)p.r(C)p.r(G)p.r(A)p.r(A)p.r(G)p.r(U)p.r(A)p.r(C)p.r(U)p.r(C)p.r(A)p.r(G)p.r(C)p.r(G)p.r(U)p.r(A)p.r(A)p.r(G)p.r(T)p.r(T)}$$$RNA1{StrandType:ss}|RNA2{StrandType:as}$', 'target mRNA knockdown', 97),
  ('RNA1{[s4r](A)p.[s4r](A)p.[s4r](A)p.[s4r](C)p.r(A)p.r(U)p.r(G)p.r(C)p.r(A)p.r(G)p.r(A)p.r(A)p.r(A)p.r(A)p.r(U)p.r(G)p.r(C)p.r(U)p.r(G)p.r(T)p.r(T)}|RNA2{r(C)p.r(A)p.r(G)p.r(C)p.r(A)p.r(U)p.r(U)p.r(U)p.r(U)p.r(C)p.r(U)p.r(G)p.r(C)p.r(A)p.r(U)p.[s4r](G)p.[s4r](U)p.[s4r](U)p.[s4r](U)p.r(T)p.r(T)}$$$RNA1{StrandType:ss}|RNA2{StrandType:as}$', 'target mRNA knockdown', 80.7);

# target mRNA knockdown (substance: `RNA1{r(G)p.m(C)p.r(A)p.r(G)p.r(C)p.r(A)p.r(C)p.r(G)p.r(A)p.r(C)p.r(U)p.r(U)p.r(C)p.r(U)p.r(U)p.r(C)p.r(A)p.r(A)p.r(G)p.r(U)p.r(U)}|RNA2{r(C)p.m(U)p.r(U)p.r(G)p.r(A)p.r(A)p.r(G)p.r(A)p.r(A)p.r(G)p.r(U)p.r(C)p.r(G)p.r(U)p.r(G)p.r(C)p.r(U)p.r(G)p.r(C)p.r(U)p.r(U)}$$$RNA1{StrandType:ss}|RNA2{StrandType:as}$` ) is 62.7

# target mRNA knockdown (substance: `RNA1{r(G)p.r(A)p.r(C)p.r(G)p.[hna](U)p.r(A)p.r(A)p.[hna](A)p.r(C)p.r(G)p.[hna](G)p.r(C)p.r(C)p.[hna](A)p.r(C)p.r(A)p.r(A)p.r(G)p.r(U)p.[hna](U)p.d(T)}|RNA2{r(A)p.m(C)p.r(U)p.r(U)p.r(G)p.r(U)p.r(G)p.r(G)p.r(C)p.r(C)p.r(G)p.r(U)p.r(U)p.r(U)p.r(A)p.r(C)p.r(G)p.r(U)p.r(C)p.r(G)p.r(C)}$$$RNA1{StrandType:ss}|RNA2{StrandType:as}$` ) is 38

# target mRNA knockdown (substance: `RNA1{m(C)p.r(G)p.m(G)p.r(A)p.m(U)p.r(C)p.m(U)p.r(A)p.m(C)p.r(A)p.m(C)p.r(C)p.m(U)p.r(U)p.m(C)p.r(A)p.m(A)p.r(G)p.m(A)p.r(T)p.r(T)}|RNA2{m(U)p.r(C)p.m(U)p.m(U)p.r(G)p.r(A)p.r(A)p.r(G)p.r(G)p.m(U)p.r(G)p.m(U)p.r(A)p.r(G)p.r(A)p.m(U)p.r(C)p.r(C)p.r(G)p.r(T)p.r(T)}$$$RNA1{StrandType:ss}|RNA2{StrandType:as}$` ) is 29

# target mRNA knockdown (substance: `RNA1{r(C)p.r(U)p.r(U)p.r(A)p.r(C)p.r(G)p.r(C)p.r(U)p.r(G)p.r(A)p.r(G)p.r(U)p.r(A)p.r(C)p.r(U)p.r(U)p.r(C)p.r(G)p.r(A)p.r(T)p.r(T)}|RNA2{r(U)p.r(C)p.r(G)p.r(A)p.r(A)p.r(G)p.r(U)p.r(A)p.r(C)p.r(U)p.r(C)p.[lna](A)p.r(G)p.r(C)p.r(G)p.r(U)p.r(A)p.r(A)p.r(G)p.r(T)p.r(T)}$$$RNA1{StrandType:ss}|RNA2{StrandType:as}$` ) is 89
